system: T-47D breast; assay: NCI tumour cell line growth inhibition, 48 h
# reported GI50; entries follow

// below: answered molecules
Smiles notation	Recorded value
CC/C=C\C[C@H](O)C/C=C1/C(=O)C(Cl)=C[C@@H]1C/C=C\CCCC(=O)OC	0.985 µM
COc1cccc(F)c1C(=O)c1cnc(NC2CCN(S(C)(=O)=O)CC2)nc1N	5.22 µM
COc1cc(Nc2ncccc2C(=O)NCc2cn(Cc3cccc(Oc4ccccc4)c3)nn2)cc(OC)c1	4.58 µM
Cn1cc(C2=C(c3ccc(N)cc3)C(=O)NC2=O)c2ccccc21	> 24 µM

Fill in GI50 for record Nc1ccc([N+](=O)[O-])cc1N=C/C=C/c1ccccc1 15.7 µM

Query GI50 for COc1ccccc1/C=N\N/C(N)=N\N=C\c1ccccc1OC 0.457 µM

Specify reported GI50 for the molecule shown: COc1cc(C(=O)N2CCN(C=O)C2=S)cc(OC)c1OC 20.7 µM

Retrieve GI50 measured for COc1ccc(/C=C\[N+](=O)[O-])cc1OC and print it. 7.6 µM

----------
tested on: SF-295 CNS; experiment: NCI tumour cell line growth inhibition, 48 h
Measured endpoint: GI50

Molecule	Recorded value
COc1ccc(Sc2[nH]c(C(C)=O)c3ccccc23)cc1	11.6 µM
COc1cc(-c2oc(=O)ccc2C#Cc2ccccn2)cc(OC)c1OC	0.224 µM
O=C(Nc1ccc(Br)cc1F)c1cc(F)ccc1O	1.76 µM
CC/C=C\C[C@H](O)C/C=C1/C(=O)C(Cl)=C[C@@H]1C/C=C\CCCC(=O)OC	2.4 µM
Nc1nn2cc(F)cnc2c1C(=O)Nc1cncc(F)c1N1CCC(C(=O)N2CCN(C3COC3)CC2)CC1	0.238 µM
S=C(Nc1ccc(Cl)cc1)Nc1ccc(-c2nc3ccccc3s2)cc1	16.1 µM
COc1cccc(F)c1C(=O)c1cnc(NC2CCN(S(C)(=O)=O)CC2)nc1N	3 µM
CC(=O)Nc1ccc(S(=O)(=O)N2C(=O)CCC2C(=O)Nc2ccc(Br)cc2)cc1 (configuration not stated)	2.11 µM

Please list GI50 recorded for the molecule NC(=S)N/N=C/C(=O)O > 100 µM

Return the recorded GI50 value; entry: COc1ccc(/C=C\[N+](=O)[O-])cc1OC 12.2 µM

Please look at this molecule and report its GI50: NC(=O)/C=C/C(=O)c1c(Cl)cccc1Cl 2.54 µM

// fetch GI50 given entry c1ccc(-c2nnc(-c3ccccn3)s2)nc1 > 100 µM

Given the molecule NC(N)=N/N=C/c1c(-c2ccsc2)nc2sccn12 , write its reported GI50. 11.4 µM

Provide only the value of recorded GI50 for CCOC(=O)C1=CN(C)C=C(C(=O)OCC)C1c1cc(Br)c(OCC)c(OC)c1 41.1 µM

Assign GI50 to the following record: COc1ccccc1/C=N\N/C(N)=N\N=C\c1ccccc1OC < 0.0478 µM

Input CC1(C)N=C(N)N=C(N)N1c1ccc(CCCCc2ccc(Cl)cc2S(=O)(=O)F)c(Cl)c1 , output reported GI50. 0.409 µM

Please give measured GI50 of the following entry: COc1cc(OCc2cccc(-c3ccc(C(O)c4nccs4)cc3)c2C)cc(OC)c1C=O (configuration not stated) 2.12 µM

----------
TGI listing for selected compounds.
tested on: SW-620 colon; test: NCI tumour cell line growth inhibition, 48 h

Compound	TGI
CCCC(=O)OCC1OC(n2ccc(N)nc2=O)C(OC(=O)CCC)C1OC(=O)CCC (centres undefined)	> 100 µM
COc1cc(OCc2cccc(-c3ccc(C(O)c4nccs4)cc3)c2C)cc(OC)c1C=O (centres undefined)	12.7 µM
Cn1c(I)c(C#CCO[Si](C)(C)C(C)(C)C)c(=O)[nH]c1=O	4.14 µM
CC1(C)C(C#N)C1C1=C(N2CCOCC2)[C@]2(C)C(OC(=O)c3ccccc3)CC[C@@H]2C1 (some centres undefined)	> 100 µM
CCC(=O)CC(=O)CCC(=O)Nc1cc(C)ccc1C	> 100 µM
CCCC(=O)NC(NC1CCCCC1)(C(=O)OCC)C(F)(F)F (centres undefined)	> 100 µM

For the compound N#Cc1c(N)nc(N2CCOCC2)c(C#N)c1-c1ccncc1 , give its reported TGI. > 100 µM

Indicate its recorded TGI; the compound in question is CCN(CC)CCC(CNc1ccnc2cc(Cl)ccc12)c1ccc(Cl)cc1 (centres undefined) 3.39 µM

Give the measured TGI for Nc1nc(Cl)cc(NCCCCCCCCNc2cc(Cl)nc(N)n2)n1 > 100 µM

State, in one line, measured TGI of Cc1ccc(-n2cnc(C(=N)C#N)c2N)cc1 > 100 µM

Assign TGI to the following record: CC(C)Cc1ccc(C(C)C(=O)N2CCN(/C=C/c3ccccc3)CC2)cc1 (centres undefined) 30.3 µM

Complete the entry with TGI for O=C(/C=C/c1ccccc1)CCC1C(=O)c2ccccc2C1=O > 100 µM

Tell me TGI reported for Oc1ccc(Nc2ncnc3c2sc2ncccc23)cc1 > 100 µM

State, in one line, measured TGI of COc1ccc2occ(CCC(=O)O)c2c1 > 100 µM

Give the value of TGI reported for the following: C(=NCCN1CCOCC1)=NC1CCCCC1 > 100 µM

Annotate the compound COc1ccc(OC)c2c1[nH]c(=O)c1c3ccccc3cn21 with its measured TGI. 2.11 µM

Identify TGI associated with the compound COc1cccc(C2c3cc4c(cc3OC(N3CCCCC3)C2C)OCO4)c1O (centres undefined) > 87.8 µM

Taken from PubChem BioAssay (NCI).
